system: HeLa S-3 human cervical carcinoma cell line; experiment: HeLa GI50 determination (SRB); format: cell-based; conditions: Homo sapiens, HeLa S3, 48 h; HeLa S-3, 2 days of treatment, SRB; read-out: HeLa Cells GI50

- molecule: "CCC1=C[C@H]2CN(C1)Cc1c([nH]c3ccc([S+]([O-])CCO)cc13)[C@@](C(=O)OC)(c1cc3c(cc1OC)N(C)[C@H]1[C@@](O)(C(=O)OC)[C@H](OC(C)=O)C4C(CC)=CCN5CC[C@]31[C@H]45)C2 (stereo partly shown) [Example 19, 11′-(3-hydroxyethylsulfinyl)vinorelbine]"
  GI50, nM: 300
- molecule: "CCC1=C[C@H]2CN(C1)Cc1c([nH]c3ccc(Sc4ccccc4)cc13)[C@@](C(=O)OC)(c1cc3c(cc1OC)N(C)[C@H]1[C@@](O)(C(=O)OC)[C@H](OC(C)=O)C4C(CC)=CCN5CC[C@]31[C@H]45)C2 (stereo partly shown)"
  GI50, nM: 20
- molecule: "CCC1=C[C@H]2CN(C1)Cc1c([nH]c3ccc(/C=C/C(=O)O)cc13)[C@@](C(=O)OC)(c1cc3c(cc1OC)N(C)[C@H]1[C@@](O)(C(=O)OC)[C@H](OC(C)=O)C4C(CC)=CCN5CC[C@]31[C@H]45)C2 (stereo partly shown)"
  GI50, nM: 800
- molecule: "CCC1=C[C@H]2CN(C1)Cc1c([nH]c3ccc(SCCCO)cc13)[C@@](C(=O)OC)(c1cc3c(cc1OC)N(C)[C@H]1[C@@](O)(C(=O)OC)[C@H](OC(C)=O)C4C(CC)=CCN5CC[C@]31[C@H]45)C2 (stereo partly shown)"
  GI50, nM: 20

###

tested on: HeLa S-3 human cervical carcinoma cell line; experiment: HeLa GI50 determination (SRB); type: cell-based; settings: Homo sapiens, HeLa S3, 48 h; HeLa S-3, 2 days of treatment, SRB; read-out: HeLa Cells GI50

- compound: "CCC1=C[C@H]2CN(C1)Cc1c([nH]c3ccc(SCC(=O)OC)cc13)[C@@](C(=O)OC)(c1cc3c(cc1OC)N(C)[C@H]1[C@@](O)(C(=O)OC)[C@H](OC(C)=O)C4C(CC)=CCN5CC[C@]31[C@H]45)C2 (some centres unmarked) [Example 9]"
  GI50 (µM): 0.02
- compound: "CCC1=C[C@H]2CN(C1)Cc1c([nH]c3ccc(SCCCCO)cc13)[C@@](C(=O)OC)(c1cc3c(cc1OC)N(C)[C@H]1[C@@](O)(C(=O)OC)[C@H](OC(C)=O)C4C(CC)=CCN5CC[C@]31[C@H]45)C2 (some centres unmarked) [Example 12, 11′-(4-hydroxybutylsulfanyl)vinorelbine]"
  GI50 (µM): 0.02

###

test system: HeLa S-3 human cervical carcinoma cell line; experiment: HeLa GI50 determination (SRB); type: cell-based; conditions: Homo sapiens, HeLa S3, 48 h; HeLa S-3, 2 days of treatment, SRB; read-out: HeLa Cells GI50
Each item that follows carries a reported GI50.
measure: GI50 (nM)

- molecule: "CCC1=C[C@H]2CN(C1)Cc1c([nH]c3ccc(-c4ccccc4)cc13)[C@@](C(=O)OC)(c1cc3c(cc1OC)N(C)[C@H]1[C@@](O)(C(=O)OC)[C@H](OC(C)=O)C4C(CC)=CCN5CC[C@]31[C@H]45)C2 (some centres unmarked) [Example 30, 11′-phenylvinorelbine]"
  value: 70
- molecule: "CCC1=C[C@H]2CN(C1)Cc1c([nH]c3ccc(C(=O)OC)cc13)[C@@](C(=O)OC)(c1cc3c(cc1OC)N(C)[C@H]1[C@@](O)(C(=O)OC)[C@H](OC(C)=O)C4C(CC)=CCN5CC[C@]31[C@H]45)C2 (some centres unmarked) [Example 27, 11′-(methoxycarbonyl) vinorelbine]"
  value: 30

###

system: HeLa S-3 human cervical carcinoma cell line; test: HeLa GI50 determination (SRB); assay type: cell-based; conditions: Homo sapiens, HeLa S3, 48 h; HeLa S-3, 2 days of treatment, SRB; read-out: HeLa Cells GI50
Rule: GI50 below 100 nM gives label 1, anything at or above gives label 0.

- compound: "CCC1=C[C@H]2CN(C1)Cc1c([nH]c3ccc(Sc4cccc(O)c4)cc13)[C@@](C(=O)OC)(c1cc3c(cc1OC)N(C)[C@H]1[C@@](O)(C(=O)OC)[C@H](OC(C)=O)C4C(CC)=CCN5CC[C@]31[C@H]45)C2 (some centres unmarked) [Example 18, 11′-(3-hydroxyphenysulfanyl)vinorelbine]"
  class.label: "label 1"
- compound: "CCC1=C[C@H]2CN(C1)Cc1c([nH]c3ccc(I)cc13)[C@@](C(=O)OC)(c1cc3c(cc1OC)N(C)[C@H]1[C@@](OC)(C(=O)OC)[C@H](OC(C)=O)C4C(CC)=CCN5CC[C@]31[C@H]45)C2 (some centres unmarked)"
  class.label: "label 1"
- compound: "CCC1=C[C@H]2CN(C1)Cc1c([nH]c3ccc(SCCC(=O)OC)cc13)[C@@](C(=O)OC)(c1cc3c(cc1OC)N(C)[C@H]1[C@@](O)(C(=O)OC)[C@H](OC(C)=O)C4C(CC)=CCN5CC[C@]31[C@H]45)C2 (some centres unmarked)"
  class.label: "label 0"
- compound: "CCC1=C[C@H]2CN(C1)Cc1c([nH]c3ccc(C(=O)OCC(Cl)Cl)cc13)[C@@](C(=O)OC)(c1cc3c(cc1OC)N(C)[C@H]1[C@@](O)(C(=O)OC)[C@H](OC(C)=O)C4C(CC)=CCN5CC[C@]31[C@H]45)C2 (some centres unmarked)"
  class.label: "label 1"
- compound: "CCC1=C[C@H]2CN(C1)Cc1c([nH]c3ccc(S)cc13)[C@@](C(=O)OC)(c1cc3c(cc1OC)N(C)[C@H]1[C@@](O)(C(=O)OC)[C@H](OC(C)=O)C4C(CC)=CCN5CC[C@]31[C@H]45)C2 (some centres unmarked)"
  class.label: "label 1"
- compound: "CCC1=C[C@H]2CN(C1)Cc1c([nH]c3ccc([S+]([O-])CCCO)cc13)[C@@](C(=O)OC)(c1cc3c(cc1OC)N(C)[C@H]1[C@@](O)(C(=O)OC)[C@H](OC(C)=O)C4C(CC)=CCN5CC[C@]31[C@H]45)C2 (some centres unmarked)"
  class.label: "label 1"
- compound: "CCC1=C[C@H]2CN(C1)Cc1c([nH]c3ccc(SCCO)cc13)[C@@](C(=O)OC)(c1cc3c(cc1OC)N(C)[C@H]1[C@@](O)(C(=O)OC)[C@H](OC(C)=O)C4C(CC)=CCN5CC[C@]31[C@H]45)C2 (some centres unmarked) [Example 14, 11′-(2-hydroxyethylsulfanyl)vinorelbine]"
  class.label: "label 1"
- compound: "CCCC(=O)/C=C/c1ccc2[nH]c3c(c2c1)CN1CC(CC)=C[C@@H](C1)C[C@]3(C(=O)OC)c1cc2c(cc1OC)N(C)[C@H]1[C@@](O)(C(=O)OC)[C@H](OC(C)=O)C3C(CC)=CCN4CC[C@]21[C@H]34 (some centres unmarked)"
  class.label: "label 0"
- compound: "CCC1=C[C@H]2CN(C1)Cc1c([nH]c3ccc(C#CCC(C)C)cc13)[C@@](C(=O)OC)(c1cc3c(cc1OC)N(C)[C@H]1[C@@](O)(C(=O)OC)[C@H](OC(C)=O)C4C(CC)=CCN5CC[C@]31[C@H]45)C2 (some centres unmarked)"
  class.label: "label 0"
- compound: "CCSc1ccc2[nH]c3c(c2c1)CN1CC(CC)=C[C@@H](C1)C[C@]3(C(=O)OC)c1cc2c(cc1OC)N(C)[C@H]1[C@@](O)(C(=O)OC)[C@H](OC(C)=O)C3C(CC)=CCN4CC[C@]21[C@H]34 (some centres unmarked) [Example 11, 11′-(ethylsulfanyl) vinorelbine]"
  class.label: "label 1"

Data provenance: patent US7842802B2
